Data provenance is patent US9326953B2.

# System: MDA cells
# assay protocol: [3H]thymidine cell proliferation assay
# Type: cell-based, Human
# run parameters: [3H]thymidine incorporation, 10% FBS for 12 h of treatment; read-out: IC50 of C6, inhibition of MDA cell proliferation
measurement type: IC50 (µM)
Numbers only, in µM.

Supply measured IC50 of CCCCCCCCCCCCC/C=C/[C@@H](O)[C@H](CO)NC(=O)CCCCC in your reply. 15
